Settings: mouse, microsomes, 1 µM
Description: DNDI: in vitro intrinsic clearance in mouse liver microsomes at a concentration of 1uM
Measured metric: CLint in vitro (µL/min/mg)
# value in µL/min/mg; strip the unit string

> print(dat)
                                   molecule  measured.metric  measured.number
1       CC(C)(C)CN/C(=N\O)c1ccccc1-c1ccccc1   CLint in vitro               78
2      CCCCc1ccc(-c2nc(CN3CCN(C)CC3)co2)cc1   CLint in vitro               31
3  CCCCCC(C)NCc1coc(-c2ccc(OCCCC)c(F)c2)n1 (centres undefined)   CLint in vitro               11
4  CCCCCC(C)NCc1coc(-c2ccc(OCC(C)(C)C)cc2)n1 (centres undefined)   CLint in vitro               12
5  CC(C)(C)c1ccc(Oc2ncccc2/C(=N/O)NC2CCCCC2)cc1   CLint in vitro               95
6  CCCCCOc1ccc(-c2nc(CNC(C)CCCCC)co2)cc1 (centres undefined)   CLint in vitro               13
7  COc1ccc(CNC(CC(C)C)c2nc(Cc3ccccc3)c(N3CCOCC3)o2)cc1 (centres undefined)   CLint in vitro              463
8             O/N=C(\NC1CCCCC1)c1c(F)cccc1F   CLint in vitro                8

response.value for CCCCc1ccc(-c2nc(CN3CCOCC3)co2)cc1 (field: CLint in vitro) = 348

So, O/N=C(/NC1CCCCC1)c1cccc2ccccc12 ? Its CLint in vitro was 168

Short answer for CCCCCC(C)NCc1coc(-c2ccc(OC3CCCCC3)cc2)n1 (centres undefined) : CLint in vitro was 13

Just so you know, measured CLint in vitro for Cc1cccc(C)c1/C(=N/O)NC1CCCCC1 came out at 76

Just so you know, measured CLint in vitro for CCCCCC(C)NCc1coc(-c2ccc(OC3CCCC3)cc2)n1 (centres undefined) came out at 13

Recorded result, CCCCc1ccc(-c2nc(CNCCN3CCCC3)co2)cc1 , CLint in vitro: 33

Form field CLint in vitro, entry CCCCCC(C)NCc1coc(-c2ccc(OCCOCC)cc2)n1 (centres undefined) : 42

CLint in vitro reading for CCCCc1ccc(-c2nc(CNCC)co2)cc1 : 76

---

Assay: in vitro
Details: human, liver microsomes, CLint in vitro
Description: DNDI: in vitro intrinsic clearance in human liver microsomes at a concentration of 1uM
Reported microsomal CLint at 1 µM values follow for various compounds
Answer in µL/min/mg, number only, no unit symbol.

# example entries with known answers
> print(dat)
                                   compound  unit.text  measured.number
1  CCCCc1ccc(-c2nc(CNC[C@@H]3CC[C@H]4C[C@@H]3C4(C)C)co2)cc1  µL/min/mg               22
2           O/N=C(/NC1CCCCC1)c1cccc2ccccc12  µL/min/mg               12
3            COc1ccc(/C(CNC2CCCCC2)=N/O)cc1  µL/min/mg               66
4  CCCCc1ccc(-c2nc(CNC3CC(C)CC(C)(C)C3)co2)cc1 (stereo unspecified)  µL/min/mg               14
5           O/N=C(\NC1CCCCC1)c1cc(F)cc(F)c1  µL/min/mg               14

From here, focus on the item given below.
Lab note: measured microsomal CLint at 1 µM of CC(C)(C)CN/C(=N\O)c1ccccc1-c1ccccc1 was 13

---

Experiment: DNDI: Cytotoxicity against L929 mouse fibroblasts, 72 hour.
Assay type: toxicity, cell-based
Conditions: mouse, L929 mouse fibroblasts
Measured metric: IC50 at 72 h (µg/mL)
Field: numeric (µg/mL). Do not append units.

Recorded IC50 at 72 h, per entry:
> print(dat)
                                   compound  measured.number
1  CCCCCC(C)NCc1coc(-c2ccc(C)cc2)n1 (configuration not stated)             5.76
2  CC(C)Oc1ccc(-c2nc(CN[C@@H]3C[C@@H]4C[C@H]([C@H]3C)C4(C)C)co2)cc1              1.9
3  CCCCCC(C)NCc1coc(-c2ccc(OC(F)(F)F)cc2)n1 (configuration not stated)             3.56

The compound listed as CCCCCC(C)NCc1coc(-c2ccc(OCCCC)c(OC)c2)n1 (configuration not stated) has a reported IC50 at 72 h of 1.48

Notebook: CN(C)CCCNc1cc(-c2ccccc2)nc2cc(-c3cccc(F)c3)nn12 , IC50 at 72 h read as 2.28

For this compound ( CCCCCC(C)NCc1coc(-c2ccc(C)c(C)c2)n1 (configuration not stated) ), measured IC50 at 72 h is 1.86

// sample CCc1cccc(N/C(=N/O)c2ccccc2-c2ccccc2)c1 , its IC50 at 72 h was 2.4

Input CCCCc1ccc(-c2nc(CNC3CCCCCC3)co2)cc1 . Output IC50 at 72 h: 1.23

Form: compound = CCCCCC(C)NCc1coc(-c2ccc(C(C)C)cc2)n1 (configuration not stated) ; IC50 at 72 h = 1.33

---

Experiment: DNDI: Cytotoxicity against L929 mouse fibroblasts, 72 hour.
Format: toxicity, cell-based
Conditions: mouse, L929 mouse fibroblasts
Measured metric: IC50 at 72 h (µg/mL)
Please respond with the number in µg/mL and leave the unit unwritten.

The following compounds have reported results that may help.
> print(dat)
                                   compound  measured.number
1          Clc1nc(Oc2cccc3ccccc23)c2sccc2n1             2.52
2  CCCCCC(C)NCc1coc(-c2ccc(Oc3ccccc3)cc2)n1 (configuration not stated)              1.6
3   CCCCc1ccc(-c2nc(CNCc3ccc(Cl)cc3)co2)cc1             7.38
4  CCCCCC(C)NCc1coc(-c2ccc([N+](=O)[O-])cc2)n1 (configuration not stated)             7.08
5        CCOc1ccc(-c2nc(CNCc3ccccc3)co2)cc1             18.1

The compound listed as CCOc1ccc(-c2nc(CNC3C[C@@H]4C[C@H]([C@@H]3C)C4(C)C)co2)cc1 (some centres not stated) has a reported IC50 at 72 h of 3.64

// field: IC50 at 72 h; key: CCCCc1ccc(-c2nc(CNC3CC(C)CC(C)(C)C3)co2)cc1 (configuration not stated) ; value = 0.64

Notebook: Cc1cc(NCC(C)(C)CN(C)C)n2nc(-c3cccc(F)c3)cc2n1 , IC50 at 72 h read as 9.64

Item: CCCCc1ccc(-c2nc(CNCc3ccc(C)cc3)co2)cc1 | IC50 at 72 h: 2.63

Quick note, IC50 at 72 h for NCCCNc1cc(-c2ccccc2)nc2cc(-c3ccc(F)cc3)nn12 landed at 0.76

---

Assay: DNDI: Cytotoxicity against L-6 rat myoblasts from skeletal muscle cells
Type: toxicity, cell-based, L6
Conditions: L-6 rat skeletal muscle myoblasts
A collection of molecules and their measured IC50
Write the value in µg/mL as a bare number.

> print(dat)
                                   molecule  measured.number
1       CCCCc1ccc(-c2nc(CNC3CCCCCC3)co2)cc1             2.85
2  CCCCCC(C)NCc1coc(-c2ccc(C(C)(C)C)cc2)n1 (centres undefined)             3.25
3  CCCCCC(C)NCc1coc(-c2ccc(OCCCC)cc2)n1 (centres undefined)             2.66

Given item O/N=C(/NC1CCCCC1)c1cccnc1Oc1ccccc1 , the value recorded as its IC50 is 43.9

IC50 reading for CCCCCC(C)NCc1coc(-c2ccc(Cl)cc2)n1 (centres undefined) : 10.9

What the record says about CCCCc1ccc(-c2nc(CNC[C@@H]3CC[C@H]4C[C@@H]3C4(C)C)co2)cc1 : IC50 is 2.89

Recorded result, COc1cc(C)ccc1Oc1ncccc1/C(=N/O)NC1CCCCC1 , IC50: 76.2

Form: molecule = CCCCc1ccc(-c2nc(CNC3[C@H]4C[C@@H]5C[C@@H](C[C@H]3C5)C4)co2)cc1 (some centres undefined) ; IC50 = 8.8

---

Biological target: MDR1 (ABCB1) (Homo sapiens, UniProt P08183)
Sequence (P08183 whole entry): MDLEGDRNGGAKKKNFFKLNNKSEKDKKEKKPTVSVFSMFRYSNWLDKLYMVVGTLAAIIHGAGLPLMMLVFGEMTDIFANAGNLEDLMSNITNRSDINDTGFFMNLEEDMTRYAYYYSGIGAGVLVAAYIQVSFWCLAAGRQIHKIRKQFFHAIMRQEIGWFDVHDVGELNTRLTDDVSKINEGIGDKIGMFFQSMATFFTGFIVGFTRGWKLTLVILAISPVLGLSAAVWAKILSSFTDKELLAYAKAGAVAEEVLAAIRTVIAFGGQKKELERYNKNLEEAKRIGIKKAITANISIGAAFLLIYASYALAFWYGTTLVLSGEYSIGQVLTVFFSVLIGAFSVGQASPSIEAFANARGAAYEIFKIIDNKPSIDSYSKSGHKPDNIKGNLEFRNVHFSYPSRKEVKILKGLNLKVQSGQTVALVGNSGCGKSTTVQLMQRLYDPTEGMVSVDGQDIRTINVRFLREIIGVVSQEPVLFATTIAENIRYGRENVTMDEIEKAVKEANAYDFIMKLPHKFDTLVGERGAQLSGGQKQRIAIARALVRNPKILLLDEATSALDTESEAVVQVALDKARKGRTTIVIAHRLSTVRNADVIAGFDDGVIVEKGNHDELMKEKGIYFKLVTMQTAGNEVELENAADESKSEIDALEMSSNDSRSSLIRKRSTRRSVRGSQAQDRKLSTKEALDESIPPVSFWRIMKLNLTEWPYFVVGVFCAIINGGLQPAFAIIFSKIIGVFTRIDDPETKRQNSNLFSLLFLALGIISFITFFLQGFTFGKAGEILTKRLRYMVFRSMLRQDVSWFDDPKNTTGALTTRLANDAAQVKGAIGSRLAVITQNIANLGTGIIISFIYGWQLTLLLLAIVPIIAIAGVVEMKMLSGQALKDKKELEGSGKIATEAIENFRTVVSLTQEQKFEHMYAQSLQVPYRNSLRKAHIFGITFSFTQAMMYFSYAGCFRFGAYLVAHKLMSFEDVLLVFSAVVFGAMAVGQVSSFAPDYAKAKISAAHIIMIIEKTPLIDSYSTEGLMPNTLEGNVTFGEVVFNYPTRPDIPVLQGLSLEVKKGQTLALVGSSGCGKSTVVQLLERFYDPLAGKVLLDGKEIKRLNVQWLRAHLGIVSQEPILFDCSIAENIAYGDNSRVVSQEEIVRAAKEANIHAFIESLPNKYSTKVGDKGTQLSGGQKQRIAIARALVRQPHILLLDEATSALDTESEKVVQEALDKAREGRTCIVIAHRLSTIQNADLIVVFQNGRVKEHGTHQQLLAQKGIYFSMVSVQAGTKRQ
Test: DNDI: Efflux ratio for permeability from basolateral to apical side to apical to basolateral side of MDCK cells transfected with human MDR1
Type: ADME, cell-based, Canis lupus familiaris
Settings: dog, MDCK-MDR1; read-out: Calculated Ratio
Entries and their measured efflux ratio follow.
Format: numeric value only, no unit, no commentary.

Some compounds with known efflux ratio results, for comparison:
> print(dat)
                                     smiles  measured.metric  measured.number
1  Fc1cccc(-c2cc3nc(-c4ccccc4)cc(NCCCN4CCOCC4)n3n2)c1     efflux ratio             0.05
2  Cc1cc(NCCCN2CCOCC2)n2nc(-c3cccc(F)c3)cc2n1     efflux ratio             0.12
3  CC(C)(C)c1cc(N2CCNCC2)n2nc(-c3ccc(F)cc3)cc2n1     efflux ratio             0.08
4    Cc1cc(NCCN(C)C)n2nc(-c3cccc(F)c3)cc2n1     efflux ratio             0.14

Please look at the following compound next.
The compound Cc1cc(NCCCn2ccnc2)n2nc(-c3cccc(F)c3)cc2n1 , when measured on MDR1 (ABCB1) (Homo sapiens, UniProt P08183), yielded efflux ratio of 0.43
